Tested on: HeLa MKYP cells
Test: Cell death measured by DAPI staining, with 1 μM FCCP/oligomycin or no toxin (no FO)
Format: cell-based
Settings: with 1 μM FO
Exam item: assign Condition met to entries whose Max % death with 1 μM FO is below 10% and Condition not met to entries at or above 10%. Note that a value of exactly 10% receives Condition not met.

// known answers, use as guide
Q: Just wondering, is Max % death with 1 μM FO of FC(F)OC1CN([C@H]2COc3ccccc3[C@@H]2Nc2ncnc3[nH]c(C(F)(F)F)cc23)C1 (single isomer, unassigned) [EP-0041541] below 10%?
A: Condition not met

Q: Just wondering, is Max % death with 1 μM FO of C[C@@]12COC[C@]1(C)CN(C1CCc3ccccc3C1Nc1ncnc3[nH]c(C4CC4)cc13)C2 (stereo partly drawn) below 10%?
A: Condition not met

Q: Just wondering, is Max % death with 1 μM FO of `CO[C@H]1CCN([C@@H]2COc3ccccc3[C@H]2Nc2ncnc3[nH]c(C(F)(F)F)cc23)C1` below 10%?
A: Condition met

Q: Just wondering, is Max % death with 1 μM FO of `FC(F)(F)c1cc2c(N[C@H]3c4ccccc4OC[C@H]3N3CCOCC3)ncnc2[nH]1` below 10%?
A: Condition met

Q: Just wondering, is Max % death with 1 μM FO of Fc1ccc2c(c1)OC[C@@H](N1CCOCC1)[C@@H]2Nc1ncnc2[nH]c(C3CC3)cc12 (single isomer, unassigned) below 10%?
A: Condition met

Next:
Q: Just wondering, is Max % death with 1 μM FO of `c1ccc2c(c1)OC[C@@H](N1CCOCC1)[C@H]2Nc1ncnc2[nH]c(C3CC3)cc12` below 10%?
A: Condition not met

###

Tested on: HeLa MKYP cells
Assay: Cell death measured by DAPI staining, with 1 μM FCCP/oligomycin or no toxin (no FO)
Assay type: cell-based
Conditions: with 1 μM FO
Procedure: EP-0035985, EP-0037821, EP-0038098, and EP-0038099 in the presence of 1 μM FCCP/oligomycin or with no toxin (no FO) for 6 hrs. H2O2 treatment was performed as a control for cell death as measured by DAPI staining. EP-0035985, EP-0038461, EP-0038463, and EP-0038503 in the presence of 1 μM FCCP/oligomycin or with no toxin (no FO) for 6.5 hrs. H2O2 treatment was performed as a control for cell death as measured by DAPI staining. […]
metric: E103 max death with 1 μM FO
# answer = number (no unit)

Q: Dear colleague, I am looking for the recorded E103 max death with 1 μM FO of the following compound: Fc1ccc2c(c1)CC[C@H](N1CCOCC1)[C@H]2Nc1ncnc2[nH]c(C(F)(F)F)cc12 (single isomer, unassigned)
A: 4.37

Q: Dear colleague, I am looking for the recorded E103 max death with 1 μM FO of the following compound: FC(F)(F)c1cc2c(N[C@H]3c4ccccc4CC[C@@H]3N3CCOCC3)ncnc2[nH]1 (single isomer, unassigned)
A: 24.02

Q: Dear colleague, I am looking for the recorded E103 max death with 1 μM FO of the following compound: FC(F)(F)c1cc2c(NC3CCCc4ccccc43)ncnc2[nH]1 (single isomer, unassigned)
A: 8.14

Q: Dear colleague, I am looking for the recorded E103 max death with 1 μM FO of the following compound: Fc1ccc2c(c1)CC[C@@H](N1CCOCC1)[C@@H]2Nc1ncnc2[nH]c(C(F)(F)F)cc12 (single isomer, unassigned)
A: 4.59

Q: Dear colleague, I am looking for the recorded E103 max death with 1 μM FO of the following compound: FC(F)(F)c1cc2c(N[C@@H]3c4ccccc4CC[C@H]3N3CCOCC3)ncnc2[nH]1 (single isomer, unassigned) [EP-0038099]
A: 13.71

Query compound follows.
Q: Dear colleague, I am looking for the recorded E103 max death with 1 μM FO of the following compound: `FC(F)(F)c1cc2c(N[C@H]3c4ccccc4CC[C@@H]3N3C[C@H]4COC[C@H]4C3)ncnc2[nH]1`
A: 7.97
